Recorded MFI, one value per entry.
experimental.system: T1, human LILRA4 (human, UniProt P59901 24-499)
T1 construct: whole, on cells; also called hLILRA4
T1 sequence (P59901 24-499): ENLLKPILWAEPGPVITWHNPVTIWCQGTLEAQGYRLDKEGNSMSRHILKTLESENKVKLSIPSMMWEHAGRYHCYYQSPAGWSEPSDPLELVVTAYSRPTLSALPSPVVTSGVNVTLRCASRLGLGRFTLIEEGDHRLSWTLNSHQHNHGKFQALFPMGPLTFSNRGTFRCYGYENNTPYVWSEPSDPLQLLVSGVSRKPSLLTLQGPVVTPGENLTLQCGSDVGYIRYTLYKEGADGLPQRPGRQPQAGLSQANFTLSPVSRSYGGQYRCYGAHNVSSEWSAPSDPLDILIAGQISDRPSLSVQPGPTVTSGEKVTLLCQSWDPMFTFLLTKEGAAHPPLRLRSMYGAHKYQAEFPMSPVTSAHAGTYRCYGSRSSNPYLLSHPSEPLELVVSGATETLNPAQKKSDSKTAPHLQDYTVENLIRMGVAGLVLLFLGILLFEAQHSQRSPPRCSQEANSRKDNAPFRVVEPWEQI
procedure.text: FACS, 293F-hLILRA4 cells
Just the number plus its unit, please.

44-F10-B6-D4 (antibody, V domains shown, mouse monoclonal hybridoma antibody) VH: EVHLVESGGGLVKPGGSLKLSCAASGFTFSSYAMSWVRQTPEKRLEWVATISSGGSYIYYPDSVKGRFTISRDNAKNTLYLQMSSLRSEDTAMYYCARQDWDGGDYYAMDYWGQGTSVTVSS VL: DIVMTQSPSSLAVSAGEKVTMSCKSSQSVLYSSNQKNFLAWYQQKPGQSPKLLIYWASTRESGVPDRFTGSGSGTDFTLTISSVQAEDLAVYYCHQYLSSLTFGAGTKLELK ... 24.4 MFI

Now turn to the next binder.
The value of MFI measured for the binder 27-D11-C2-A10 (antibody, V domains shown, mouse monoclonal hybridoma antibody) VH: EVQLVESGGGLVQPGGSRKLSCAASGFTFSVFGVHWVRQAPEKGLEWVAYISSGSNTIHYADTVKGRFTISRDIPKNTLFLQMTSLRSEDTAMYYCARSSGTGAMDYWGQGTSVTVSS VL: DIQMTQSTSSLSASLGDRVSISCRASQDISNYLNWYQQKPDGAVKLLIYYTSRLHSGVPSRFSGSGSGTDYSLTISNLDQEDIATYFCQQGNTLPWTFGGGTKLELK turned out to be 19.6 MFI
